- ASSAY_NAME: AUC in dog at 5 mg/kg,iv by LC/MS/MS analysis
- Assay type: ADME, organism-based, Canis lupus familiaris
- Parameters: dose 5 mg/kg, route iv
- APPLIED_CONDITIONS: in vivo
READOUT_LABEL: AUC (ng·h/mL)
Respond numerically; units are ng·h/mL and should not be typed.

Request: Query: AUC; subject: C[S@@+]([O-])[C@@H]1CC[C@@H]2CN1C(=O)N2O[C@H](F)C(=O)[O-].[Na+]
Response: 19400

---

I'd be grateful if you could share measured bioavailability for these entries.
- ASSAY_NAME: Oral bioavailability in rat at 5 mg/kg by LC/MS/MS analysis
- Assay type: ADME, organism-based
- APPLIED_CONDITIONS: in vivo
Provide the measurement as a number trailed by its unit.

Request: Query: bioavailability; subject: CC(C)OC(=O)[C@@H](F)ON1C(=O)N2C[C@H]1CC[C@H]2[S@@+](C)[O-]
Response: 67.6%

Request: I would be grateful if you could share the reported bioavailability for C[S@@+]([O-])[C@@H]1CC[C@@H]2CN1C(=O)N2O[C@H](F)C(=O)OC1CCCCC1 .
Response: 37.8%

Request: Data request, read-out bioavailability, for CCOC(=O)[C@@H](F)ON1C(=O)N2C[C@H]1CC[C@H]2[S@@+](C)[O-]
Response: 74.4%

---

- ASSAY_NAME: AUC in mouse at 10 mg/kg,po by LC/MS/MS analysis
- Type: ADME, organism-based
- Design: dose 10 mg/kg, route po
- APPLIED_CONDITIONS: in vivo
READOUT_LABEL: AUC (ng·h/mL)
Numeric answer only, unit ng·h/mL assumed.

Request: Quick check: AUC of C[S@@+]([O-])[C@@H]1CC[C@@H]2CN1C(=O)N2O[C@H](F)C(=O)OC1CCCCC1 ?
Response: 3900

---

- ASSAY_NAME: Inhibition of bacterial beta-lactamase CTX-M-15 using nitrocefin as substrate incubated for 20 mins
- Design: species or system Bacteria
Assignment: determine reported pIC50 for the given molecules.
Keep in mind that pIC50 stands for -log10 of concentration in molar terms.

Request: Which pIC50 value is on record for C[S@@+]([O-])[C@@H]1CC[C@@H]2CN1C(=O)N2OC(F)(F)C(=O)[O-].[Na+] ?
Response: 8.30

Request: Quick one: pIC50 for C[S@@+]([O-])[C@@H]1CC[C@@H]2CN1C(=O)N2O[C@H](F)C(=O)[O-].[Na+] ?
Response: 7.92

Request: Find the recorded pIC50 belonging to O=C([O-])[C@@H](F)ON1C(=O)N2C[C@H]1CC[C@H]2[S@+]([O-])CF.[Na+] and report it.
Response: 8.22

Request: Which pIC50 value belongs to CC(=O)NCC[S@@+]([O-])[C@@H]1CC[C@@H]2CN1C(=O)N2O[C@H](F)C(=O)[O-].[Na+] ?
Response: 7.00

Request: // query pIC50 value for entry O=C([O-])[C@@H](F)ON1C(=O)N2C[C@H]1CC[C@H]2[S@+]([O-])Cc1c[nH]cn1.[Na+]
Response: 8.10

Request: For the molecule shown here, Nc1ncc(C[S@@+]([O-])[C@@H]2CC[C@@H]3CN2C(=O)N3O[C@H](F)C(=O)[O-])s1.[Na+] , give the reported pIC50.
Response: 8.00

Request: Using the record for NC(=O)C[S@@+]([O-])[C@@H]1CC[C@@H]2CN1C(=O)N2O[C@H](F)C(=O)[O-].[Na+] , report its pIC50.
Response: 7.30
